- measured-target: Potassium channel subfamily K member 3 (Rattus norvegicus)
- test-description: inhibition of rat KCNK3 channel, SAR follow-up, selectivity assay for KCNK9 inhibitor project, cell-based, FluxOR thallium flux, CRC set 2 (AID 623912)
- condition-set: KCNK3-expressing cells, FluxOR thallium flux fluorescence
pIC50: −log10 of the molar value.

{"compound": "COc1ccccc1C(=O)Nc1cc(NC(=O)c2ccccc2C(C)C)ccc1F", "measured-target": "Potassium channel subfamily K member 3 (Rattus norvegicus)", "pIC50": 8.00}
{"compound": "O=C(Nc1cccc(NC(=O)c2cccc(Cl)c2)c1)c1ccccc1", "measured-target": "Potassium channel subfamily K member 3 (Rattus norvegicus)", "pIC50": 6.92}
{"compound": "CCOc1ccccc1NC(=O)c1cccc(NC(=O)c2ccccc2C(F)(F)F)c1", "measured-target": "Potassium channel subfamily K member 3 (Rattus norvegicus)", "pIC50": 7.53}
{"compound": "COc1ccccc1C(=O)Nc1cccc(NC(=O)c2cccc3ccccc23)c1", "measured-target": "Potassium channel subfamily K member 3 (Rattus norvegicus)", "pIC50": 8.52}
{"compound": "CCOc1ccccc1NC(=O)c1cccc(NC(=O)c2cccc(C(F)(F)F)c2)c1", "measured-target": "Potassium channel subfamily K member 3 (Rattus norvegicus)", "pIC50": 6.63}
{"compound": "Cc1cccc(C(=O)Nc2cccc(NC(=O)c3ccccc3C(C)C)c2)c1", "measured-target": "Potassium channel subfamily K member 3 (Rattus norvegicus)", "pIC50": 6.48}
{"compound": "CC(C1CC2CCC1C2)n1c(-c2cccc(F)c2)n[nH]c1=S (stereo not drawn)", "measured-target": "Potassium channel subfamily K member 3 (Rattus norvegicus)", "pIC50": 7.09}
{"compound": "O=C(Nc1cccc(NC(=O)c2cccs2)c1)c1ccccc1", "measured-target": "Potassium channel subfamily K member 3 (Rattus norvegicus)", "pIC50": 7.53}

###

Quick note: these are pIC50 numbers for system: Potassium channel subfamily K member 3 (Rattus norvegicus)
pIC50: −log10 of the molar value.
test-readout: pIC50

{"compound": "CC(C1CC2CCC1C2)N(C)C(=O)c1ccco1 (stereo unspecified)", "test-readout": "pIC50", "obs-value": 8.22}
{"compound": "CC(C1CC2CCC1C2)n1c(-c2ccccc2Cl)n[nH]c1=S (stereo unspecified)", "test-readout": "pIC50", "obs-value": 5.69}
{"compound": "COc1ccccc1C(=O)Nc1cccc(NC(=O)c2ccccc2C)c1", "test-readout": "pIC50", "obs-value": 7.14}
{"compound": "Cc1cccc(C(=O)Nc2cccc(NC(=O)c3ccccc3Cl)c2)c1", "test-readout": "pIC50", "obs-value": 7.64}
{"compound": "Cc1cccc(C(=O)Nc2cccc(NC(=O)c3cccc(Cl)c3)c2)c1", "test-readout": "pIC50", "obs-value": 8.52}
{"compound": "COc1ccccc1C(=O)Nc1cccc(NC(=O)c2ccccc2OC)c1", "test-readout": "pIC50", "obs-value": 8.01}
{"compound": "COc1cccc(-c2nnc(S(C)(=O)=O)n2C(C)C2CC3CCC2C3)c1 (stereo unspecified)", "test-readout": "pIC50", "obs-value": 6.97}
{"compound": "CC(C1CC2CCC1C2)n1c(-c2ccccc2F)n[nH]c1=S (stereo unspecified)", "test-readout": "pIC50", "obs-value": 5.66}
{"compound": "O=C(Nc1cccc(NC(=O)c2ccncc2)c1)c1ccccc1", "test-readout": "pIC50", "obs-value": 6.60}
{"compound": "CCOc1ccccc1NC(=O)c1cccc(NC(=O)CC2CCCCC2)c1", "test-readout": "pIC50", "obs-value": 6.66}
{"compound": "Cc1ccccc1C(=O)Nc1cccc(NC(=O)c2ccccc2)c1", "test-readout": "pIC50", "obs-value": 6.98}
{"compound": "COc1ccc(C(=O)CSc2nnc(-c3ccco3)n2C(C)C2CC3CCC2C3)cc1OC (stereo unspecified)", "test-readout": "pIC50", "obs-value": 5.68}
{"compound": "CCOc1ccccc1NC(=O)c1cccc(NC(=O)C(C)(C)C)c1", "test-readout": "pIC50", "obs-value": 5.88}
{"compound": "Cc1cccc(C(=O)Nc2cccc(NC(=O)c3ccncc3)c2)c1", "test-readout": "pIC50", "obs-value": 7.57}
{"compound": "S=c1[nH]nc(-c2ccco2)n1CC1CCCCC1", "test-readout": "pIC50", "obs-value": 6.22}
{"compound": "CCOc1ccccc1NC(=O)c1cccc(NC(=O)c2ccccc2OC(F)(F)F)c1", "test-readout": "pIC50", "obs-value": 6.94}
{"compound": "Cc1cccc(C(=O)Nc2cccc(NC(=O)c3ccc(C(C)(C)C)cc3)c2)c1", "test-readout": "pIC50", "obs-value": 6.73}
{"compound": "O=C(Nc1cccc(NC(=O)c2ccoc2)c1)c1ccccc1", "test-readout": "pIC50", "obs-value": 6.10}
{"compound": "Cc1cccc(S(=O)(=O)Nc2cccc(NC(=O)c3ccccc3)c2)c1", "test-readout": "pIC50", "obs-value": 5.84}
{"compound": "CC(C1CC2CCC1C2)n1c(-c2ccccc2)n[nH]c1=S (stereo unspecified)", "test-readout": "pIC50", "obs-value": 6.39}
{"compound": "CCOc1ccccc1NC(=O)c1cccc(NC(=O)CC2CCCC2)c1", "test-readout": "pIC50", "obs-value": 6.79}
{"compound": "S=c1[nH]nc(-c2ccco2)n1C1CC2CCC1C2 (stereo unspecified)", "test-readout": "pIC50", "obs-value": 7.43}
{"compound": "CC(C1CC2CCC1C2)n1c(-c2cccnc2)n[nH]c1=S (stereo unspecified)", "test-readout": "pIC50", "obs-value": 5.99}
{"compound": "Cc1cccc(C(=O)Nc2cccc(NC(=O)c3ccccc3OCC(C)C)c2)c1", "test-readout": "pIC50", "obs-value": 6.69}
{"compound": "COc1ccccc1NC(=O)c1cccc(NC(=O)C2CCCC2)c1", "test-readout": "pIC50", "obs-value": 6.62}
{"compound": "COc1ccccc1NC(=O)c1cccc(NC(=O)c2ccccc2OC)c1", "test-readout": "pIC50", "obs-value": 8.10}
{"compound": "Cc1cccc(C(=O)Nc2cccc(NC(=O)c3ccco3)c2)c1", "test-readout": "pIC50", "obs-value": 6.84}
{"compound": "Cc1cccc(C(=O)Nc2cccc(NC(=O)c3cccc(C(F)(F)F)c3)c2)c1", "test-readout": "pIC50", "obs-value": 7.96}
{"compound": "CC(C1CC2CCC1C2)n1c(-c2ccco2)n[nH]c1=O (stereo unspecified)", "test-readout": "pIC50", "obs-value": 6.74}
{"compound": "CCOc1ccccc1NC(=O)c1cccc(NC(=O)C2CCOC2)c1 (stereo unspecified)", "test-readout": "pIC50", "obs-value": 5.88}
{"compound": "Cc1cccc(C(=O)Nc2cccc(C(=O)Nc3ccccc3)c2)c1", "test-readout": "pIC50", "obs-value": 6.07}
{"compound": "CCOc1ccccc1C(=O)Nc1cccc(NC(=O)c2ccccc2C(F)(F)F)c1", "test-readout": "pIC50", "obs-value": 8.70}
{"compound": "Cc1cccc(C(=O)Nc2cccc(NC(=O)c3cccc(C)c3)c2)c1", "test-readout": "pIC50", "obs-value": 7.53}
{"compound": "COc1ccccc1NC(=O)c1cccc(NC(=O)c2ccccc2C(F)(F)F)c1", "test-readout": "pIC50", "obs-value": 7.38}
{"compound": "Cc1cccc(NC(=O)c2ccccc2NC(=O)c2ccccc2)c1", "test-readout": "pIC50", "obs-value": 5.86}
{"compound": "CC(C1CC2CCC1C2)n1c(-c2ccccn2)n[nH]c1=S (stereo unspecified)", "test-readout": "pIC50", "obs-value": 5.89}
{"compound": "Cc1cccc(C(=O)Nc2cccc(NC(=O)c3ccc(Cl)cc3)c2)c1", "test-readout": "pIC50", "obs-value": 6.83}
{"compound": "Cc1cccc(C(=O)Nc2cccc(NC(=O)C3CCCCC3)c2)c1", "test-readout": "pIC50", "obs-value": 7.77}
{"compound": "CCOc1ccccc1NC(=O)c1cccc(NC(=O)C2CCCO2)c1 (stereo unspecified)", "test-readout": "pIC50", "obs-value": 6.89}
{"compound": "CC(C1CC2CCC1C2)n1cnnc1-c1ccco1 (stereo unspecified)", "test-readout": "pIC50", "obs-value": 7.74}
{"compound": "COc1ccccc1NC(=O)c1cccc(NC(=O)c2ccccc2)c1", "test-readout": "pIC50", "obs-value": 7.19}
{"compound": "CC(C1CC2CCC1C2)n1c(-c2ccoc2)n[nH]c1=S (stereo unspecified)", "test-readout": "pIC50", "obs-value": 6.53}
{"compound": "COc1ccccc1C(=O)Nc1cccc(NC(=O)c2ccccc2)c1", "test-readout": "pIC50", "obs-value": 6.65}
{"compound": "CSc1nnc(-c2ccco2)n1C(C)C1CC2CCC1C2 (stereo unspecified)", "test-readout": "pIC50", "obs-value": 6.06}
{"compound": "COc1ccccc1C(=O)Nc1cccc(NC(=O)c2ccccc2C(C)C)c1", "test-readout": "pIC50", "obs-value": 8.15}
{"compound": "CCOc1ccccc1NC(=O)c1cccc(NC(=O)c2ccc(OC)cc2)c1", "test-readout": "pIC50", "obs-value": 6.52}
